The reported numbers originate from paper PMC11714206.

system.under.test: MAL^TIR (Homo sapiens)
Construct: MAL (residues 79–221); 6xHis; made in house; host or cells: E. coli BL21 (DE3)
Sequence (P58753 79-221): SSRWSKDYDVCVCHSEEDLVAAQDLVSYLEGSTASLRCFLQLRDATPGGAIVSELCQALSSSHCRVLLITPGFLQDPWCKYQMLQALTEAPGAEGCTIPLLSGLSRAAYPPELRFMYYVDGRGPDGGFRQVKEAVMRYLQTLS
experiment.description: T‐Surf phage library (P8 and P3) selection against MAL^TIR, four rounds, NGS read counts
Format: binding
condition.label: P3_MAL: rank by count after grouping
I'd be grateful if you could share measured Rank (after) for these entries.

**Query** Look up MAL^TIR (Homo sapiens) data: Rank (after) of LGKPGVTDEAQETGSL , then report it.
**Result** 95

**Query** Look up MAL^TIR (Homo sapiens) data: Rank (after) of RLLKWGYPWFWDRLRFA , then report it.
**Result** 187

**Query** Look up MAL^TIR (Homo sapiens) data: Rank (after) of LQNQWKLALTKVASL , then report it.
**Result** 132

**Query** Look up MAL^TIR (Homo sapiens) data: Rank (after) of NQWRNALTAAANLS , then report it.
**Result** 102

**Query** Look up MAL^TIR (Homo sapiens) data: Rank (after) of YAFTGHLHRYLMRTKT , then report it.
**Result** 114

**Query** Look up MAL^TIR (Homo sapiens) data: Rank (after) of RLLKWKEALQQVHSWV , then report it.
**Result** 148

**Query** Look up MAL^TIR (Homo sapiens) data: Rank (after) of LQNQWRNALTAAANLSGW , then report it.
**Result** 422

**Query** Look up MAL^TIR (Homo sapiens) data: Rank (after) of LQNQWKLALTKVANLSGW , then report it.
**Result** 116

**Query** Look up MAL^TIR (Homo sapiens) data: Rank (after) of LVAHAISKKMKLFATI , then report it.
**Result** 411

**Query** Look up MAL^TIR (Homo sapiens) data: Rank (after) of NQWHNALAAAANLLGL , then report it.
**Result** 473

**Query** Look up MAL^TIR (Homo sapiens) data: Rank (after) of LQNQWKLALTNVASLV , then report it.
**Result** 459

**Query** Look up MAL^TIR (Homo sapiens) data: Rank (after) of RLLKWKKRCISFIAG , then report it.
**Result** 400

**Query** Look up MAL^TIR (Homo sapiens) data: Rank (after) of PKLRTKVMNYLMRTKT , then report it.
**Result** 155

**Query** Look up MAL^TIR (Homo sapiens) data: Rank (after) of SSFREGLSPLAELSGK , then report it.
**Result** 464

**Query** Look up MAL^TIR (Homo sapiens) data: Rank (after) of PEKDTVRVNVIIHNIV , then report it.
**Result** 470

**Query** Look up MAL^TIR (Homo sapiens) data: Rank (after) of HQKGSYGEAPAEHEKR , then report it.
**Result** 397

**Query** Look up MAL^TIR (Homo sapiens) data: Rank (after) of LVAHGISNKLKIFATI , then report it.
**Result** 387

**Query** Look up MAL^TIR (Homo sapiens) data: Rank (after) of RGFLSHLRYHLPAPQH , then report it.
**Result** 129

**Query** Look up MAL^TIR (Homo sapiens) data: Rank (after) of RNVMSHLYQGLQNRGI , then report it.
**Result** 441

**Query** Look up MAL^TIR (Homo sapiens) data: Rank (after) of YTALTKSGVHAFRDND , then report it.
**Result** 475

**Query** Look up MAL^TIR (Homo sapiens) data: Rank (after) of YAFTGHLRRYLLRRSV , then report it.
**Result** 439

**Query** Look up MAL^TIR (Homo sapiens) data: Rank (after) of SSFREGLWRLLELSK , then report it.
**Result** 131

**Query** Look up MAL^TIR (Homo sapiens) data: Rank (after) of FISHLYAALQRKHVET , then report it.
**Result** 96

**Query** Look up MAL^TIR (Homo sapiens) data: Rank (after) of VRHTFAGYLCVALNRL , then report it.
**Result** 431

**Query** Look up MAL^TIR (Homo sapiens) data: Rank (after) of YLKWGYTRCWDRLRFA , then report it.
**Result** 478

**Query** Look up MAL^TIR (Homo sapiens) data: Rank (after) of GRYGELFMTETDVREG , then report it.
**Result** 403

**Query** Look up MAL^TIR (Homo sapiens) data: Rank (after) of NQWRNALTAAANQSGL , then report it.
**Result** 161

**Query** Look up MAL^TIR (Homo sapiens) data: Rank (after) of KEVEGWRDALRKIANIF , then report it.
**Result** 417

**Query** Look up MAL^TIR (Homo sapiens) data: Rank (after) of DHHLNPPPGKAIKPEMLG , then report it.
**Result** 442

**Query** Look up MAL^TIR (Homo sapiens) data: Rank (after) of LKVESWRQALEKRAN , then report it.
**Result** 122

**Query** Look up MAL^TIR (Homo sapiens) data: Rank (after) of DLFLSKLSQHLLKREK , then report it.
**Result** 455

**Query** Look up MAL^TIR (Homo sapiens) data: Rank (after) of RGFLSHLHRYLVQRGV , then report it.
**Result** 109

**Query** Look up MAL^TIR (Homo sapiens) data: Rank (after) of FMSHLYQGLKNRGI , then report it.
**Result** 165

**Query** Look up MAL^TIR (Homo sapiens) data: Rank (after) of LKWGDPYFGANCVMR , then report it.
**Result** 143

**Query** Look up MAL^TIR (Homo sapiens) data: Rank (after) of RLLKWKEALQQFHSGV , then report it.
**Result** 177

**Query** Look up MAL^TIR (Homo sapiens) data: Rank (after) of PNLRTKVLNSLMSTKT , then report it.
**Result** 477

**Query** Look up MAL^TIR (Homo sapiens) data: Rank (after) of PNLRTKVLNYLILTKT , then report it.
**Result** 190

----------
system.under.test: MyD88^TIR (Homo sapiens, UniProt Q99836)
Construct: MyD88 (residues 148–296); 6xHis; made in house; host or cells: E. coli BL21 (DE3)
Sequence (Q99836 148-296): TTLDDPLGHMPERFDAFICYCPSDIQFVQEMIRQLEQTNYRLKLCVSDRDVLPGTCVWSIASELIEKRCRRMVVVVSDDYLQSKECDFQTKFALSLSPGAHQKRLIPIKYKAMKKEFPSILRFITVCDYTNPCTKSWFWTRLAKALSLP
experiment.description: T‐Surf phage library (P8 and P3) selection against MyD88^TIR, four rounds, NGS read counts
Type: binding
condition.label: P8 library, selection against MyD88, rank before grouping
I'd be grateful if you could share measured P8_MyD88 Rank (before) for these entries.
Answer with a bare number; do not write a unit.

**Query** State its P8_MyD88 Rank (before): LGYQWNEWEYLVGIEE
**Result** 3327

**Query** State its P8_MyD88 Rank (before): NYASSTFALNELHYILRFI
**Result** 3852

**Query** State its P8_MyD88 Rank (before): YAASTWWHTVLARLMG
**Result** 1760

**Query** State its P8_MyD88 Rank (before): WALDELLQILHACEPF
**Result** 1441

**Query** State its P8_MyD88 Rank (before): YLRLEVIWFWENRRYA
**Result** 2075

**Query** State its P8_MyD88 Rank (before): PQEQVWFYERQVSLIV
**Result** 3500

**Query** State its P8_MyD88 Rank (before): YLKWGYPWFWDRLRFA
**Result** 2084

**Query** State its P8_MyD88 Rank (before): DPHDPQWFYERLVRLI
**Result** 3035

**Query** State its P8_MyD88 Rank (before): DPKALQWFYERLVSLI
**Result** 3042

**Query** State its P8_MyD88 Rank (before): DPPLLHGLYERLVILF
**Result** 2602

**Query** State its P8_MyD88 Rank (before): PQDQEWFYERMVSLIL
**Result** 3491

**Query** State its P8_MyD88 Rank (before): KFFLFFMILAFSMNR
**Result** 3892

**Query** State its P8_MyD88 Rank (before): WALDELLQILHAREL
**Result** 1451

**Query** State its P8_MyD88 Rank (before): DPQDLDWFYERLEPV
**Result** 2783

**Query** State its P8_MyD88 Rank (before): WDFASTMEQLWARLYY
**Result** 1587

**Query** State its P8_MyD88 Rank (before): DPQELGWFYERPFSQM
**Result** 2981

**Query** State its P8_MyD88 Rank (before): WDFASSSWALDELLRILY
**Result** 1585

**Query** State its P8_MyD88 Rank (before): SAASDDFWDGLIRMIE
**Result** 3704
